The measured values listed here are drawn from patent US7671045B2.

test system: T47D human breast cancer cells; assay: Alkaline phosphatase assay in human breast cancer cell line T47D; assay type: cell-based; details: T47D cells, alkaline phosphatase readout, 24 h with test compound, read-out: T47D IC50
Measured parameter: IC50

Use these answered entries as a reference point.
Structure string: C[C@]12C[C@H](c3ccc(P(C)(C)=O)cc3)C3=C4CCC(=O)C=C4CC[C@H]3[C@@H]1CC[C@@]2(O)CC#N
System tested: T47D human breast cancer cells
IC50: > 1000 nM

Structure string: C[C@]12C[C@H](c3ccc(P(C)(C)=O)cc3)C3=C4CCC(=O)C=C4CC[C@H]3[C@@H]1CCC2=O
System tested: T47D human breast cancer cells
IC50: > 1000 nM

Request: Please state recorded IC50 (tested on T47D human breast cancer cells) of C=C1CCO[C@]12CC[C@H]1[C@@H]3CCC4=CC(=O)CCC4=C3[C@@H](c3ccc(P(C)(=O)O)cc3)C[C@@]12C
Result: > 1000 nM
